Target: SMC2 hinge long K566E;SMC4 hinge long K657E (mouse;mouse, UniProt Q8CG48;Q8CG47 492-680;581-766, K566E|K657E)
Sequence (Q8CG48 492-680 K566E, chain 1 of 2): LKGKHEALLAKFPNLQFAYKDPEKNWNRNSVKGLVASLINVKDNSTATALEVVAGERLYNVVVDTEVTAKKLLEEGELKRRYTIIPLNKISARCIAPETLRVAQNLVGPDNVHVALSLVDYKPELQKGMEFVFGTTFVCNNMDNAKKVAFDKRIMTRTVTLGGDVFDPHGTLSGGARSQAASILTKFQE
Sequence (Q8CG47 581-766 K657E, chain 2 of 2): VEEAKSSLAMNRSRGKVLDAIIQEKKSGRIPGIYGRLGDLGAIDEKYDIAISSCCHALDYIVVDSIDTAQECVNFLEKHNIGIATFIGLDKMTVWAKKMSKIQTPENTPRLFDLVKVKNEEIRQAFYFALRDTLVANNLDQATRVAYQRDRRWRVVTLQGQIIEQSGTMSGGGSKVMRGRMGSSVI
Assay: fluorescence quenching titration
Measured quantity: Kd (µM)
Numbers only, in µM.

Retrieve Kd measured for TTTTTTTTTTTTTTTTTTTTTTTTTTTTTT (ssDNA) [30-mer ssDNA] and print it.
3.26
